Data provenance: paper PMC8119466

Listed here are compounds together with their documented % Phosphatase Activity (compared to DMSO) PRL-1.
Molecular target: recombinant PRL-1 (Homo sapiens, UniProt Q93096)
Construct: 6xHis (N, cleaved yes); made in house; host or cells: E. coli One Shot BL21 Star
Sequence (Q93096 whole entry): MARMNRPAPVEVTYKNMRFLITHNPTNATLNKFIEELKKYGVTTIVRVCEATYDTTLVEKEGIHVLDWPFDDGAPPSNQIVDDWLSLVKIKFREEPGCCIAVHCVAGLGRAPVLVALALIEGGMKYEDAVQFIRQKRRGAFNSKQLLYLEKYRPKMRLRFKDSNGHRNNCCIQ
Assay: In vitro phosphatase assay (DiFMUP hydrolysis), PRL-1; also: test concentration or dose not given here
Assay type: biochemical
Conditions: FDA-approved drug screen; compared to DMSO
Counter-ions that a name gives are not always drawn.
Numbers only here, please. The scale is %.

Examples with answers:
CC(=O)c1c(C)c2cnc(Nc3ccc(N4CCNCC4)cn3)nc2n(C2CCCC2)c1=O.Cl [Palbociclib (PD-0332991) HCl]; 68
C[C@](N)(Cc1ccc(O)c(O)c1)C(=O)O; 98
CCCCc1nc2cc(/C=C/C(=O)NO)ccc2n1CCN(CC)CC [Pracinostat (SB939)]; 96
CC(C(=O)O)c1cccc(C(=O)c2ccccc2)c1 (centres unmarked); 105
CC(C)C(=O)Oc1ccc(CO)cc1[C@H](CCN(C(C)C)C(C)C)c1ccccc1 [Fesoterodine Fumarate]; 89
O=C(O)CSc1nnc(Br)n1-c1ccc(C2CC2)c2ccccc12; 90

IN: Endpoint output: % Phosphatase Activity (compared to DMSO) PRL-1 of COc1ccc(C(=O)c2ccccc2O)c(O)c1 [2,2′-Dihydroxy-4-methoxybenzophenone] . Value?
OUT: 90

IN: Endpoint output: % Phosphatase Activity (compared to DMSO) PRL-1 of C[C@]12CC[C@@H]3c4ccc(O)cc4CC[C@H]3[C@@H]1CC[C@@H]2OC(=O)CCC1CCCC1 [Estradiol Cypionate] . Value?
OUT: 96

====

Listed here are compounds together with their documented % Phosphatase Activity (compared to DMSO) PRL-2.
Biological target: recombinant PRL-2 (Homo sapiens, UniProt Q12974)
Construct: 6xHis (N, cleaved yes); made in house; host or cells: E. coli One Shot BL21 Star
Sequence (Q12974 whole entry): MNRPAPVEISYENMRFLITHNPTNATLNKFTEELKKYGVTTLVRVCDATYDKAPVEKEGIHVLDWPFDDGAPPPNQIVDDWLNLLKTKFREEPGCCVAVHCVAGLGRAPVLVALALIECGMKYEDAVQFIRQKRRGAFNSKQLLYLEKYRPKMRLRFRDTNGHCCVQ
Experiment: In vitro phosphatase assay (DiFMUP hydrolysis), PRL-2;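 also: PRL-2 activity read as DiFMUP hydrolysis after 20 min at room temperature with drug, enzyme first pre-reduced at 4 °C for 20 min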
Format: biochemical
Conditions: FDA-approved drug screen; activity compared to DMSO
Numbers only here, please. The scale is %.

IN: Endpoint output: % Phosphatase Activity (compared to DMSO) PRL-2 of CCN1CCCC1CNC(=O)c1cc(S(N)(=O)=O)ccc1OC (centres unmarked) [Sulpiride] . Value?
OUT: 92

IN: Endpoint output: % Phosphatase Activity (compared to DMSO) PRL-2 of COc1cnc(NS(=O)(=O)c2ccc(N)cc2)nc1 . Value?
OUT: 109

IN: Endpoint output: % Phosphatase Activity (compared to DMSO) PRL-2 of COc1cc(C2Oc3cc([C@H]4Oc5cc(O)cc(O)c5C(=O)[C@@H]4O)ccc3OC2CO)ccc1O (some centres unmarked) . Value?
OUT: 87

IN: Endpoint output: % Phosphatase Activity (compared to DMSO) PRL-2 of O=C(O)CCCc1ccccc1 [Sodium Phenylbutyrate] . Value?
OUT: 110

IN: Endpoint output: % Phosphatase Activity (compared to DMSO) PRL-2 of COc1ccc(C(CN(C)C)C2(O)CCCCC2)cc1 (centres unmarked) . Value?
OUT: 100

====

Target: recombinant PRL-3 (Homo sapiens, UniProt O75365)
Construct: 6xHis (N, cleaved yes); made in house; host or cells: E. coli One Shot BL21 Star
Sequence (O75365 whole entry): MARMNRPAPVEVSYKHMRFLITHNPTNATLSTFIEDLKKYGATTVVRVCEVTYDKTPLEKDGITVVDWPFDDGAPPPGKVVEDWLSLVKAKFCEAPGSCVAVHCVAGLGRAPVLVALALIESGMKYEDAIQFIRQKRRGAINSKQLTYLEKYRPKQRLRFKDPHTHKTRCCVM
Experiment: In vitro phosphatase assay (DiFMUP hydrolysis), PRL-3; also: test concentration or dose not given here
Type: biochemical
Conditions: FDA-approved drug screen; compared to DMSO
Where a name gives a salt, the structure may show the parent alone.
Assay Readout: % Phosphatase Activity (compared to DMSO) PRL-3
Record the result as number plus unit.

Examples with answers:
COC(=O)C1=C(C)NC(C)=C(C(=O)OC(C)(C)CN(C)CCC(c2ccccc2)c2ccccc2)C1c1cccc([N+](=O)[O-])c1.Cl (stereo not shown) [Lercanidipine (hydrochloride)]; 84%
CC(C)NCC(O)c1cc(O)cc(O)c1 (stereo not shown) [Metaproterenol Sulfate]; 95%
Cl.Cl.Fc1ccc(C(c2ccc(F)cc2)N2CCN(C/C=C/c3ccccc3)CC2)cc1 [Flunarizine 2HCl]; 101%
CO[C@H]1O[C@@H]2O[C@@]3(C)CC[C@H]4[C@H](C)CC[C@@H]([C@H]1C)[C@@]24OO3 [Artemether]; 85%
COC(=O)N(C)c1c(N)nc(-c2nn(Cc3ccccc3F)c3ncccc23)nc1N [Riociguat (BAY 63-2521)]; 90%
C#C[C@]1(O)C=C[C@H]2[C@@H]3CCC4=CC(=O)CC[C@@H]4[C@H]3CC[C@@]21CC [Gestodene]; 77%

Now examine the next entry.
IN: Write down the reported % Phosphatase Activity (compared to DMSO) PRL-3 of COc1ccc(CN2CCN(C(c3ccc(F)cc3)c3ccc(F)cc3)CC2)c(OC)c1OC.Cl.Cl [Lomerizine HCl] , test system: recombinant PRL-3 (Homo sapiens, UniProt O75365).
OUT: 84%
